This collection of values is drawn from the Immune Epitope Database (IEDB).

- EXPERIMENTAL SYSTEM: HLA-A*03:01
- METHOD: IEDB peptide-MHC binding, purified MHC/competitive/radioactivity; filed as Kd, often an IC50 or EC50 that approximates it; bounds were set here for any values at or beyond the usual limits of such assays
- SETUP CONDITIONS: source organism: Triticum aestivum
MEASURED ENDPOINT: Kd

Please supply the value of reported Kd for the item `KSQVLQQSTY`
≥ 21.7 µM

====

- EXPERIMENTAL SYSTEM: HLA-C*03:03
- METHOD: IEDB peptide-MHC binding, purified MHC/direct/fluorescence; filed as Kd, often an IC50 or EC50 that approximates it; bounds were set here for any values at or beyond the usual limits of such assays
- SETUP CONDITIONS: source organism: Pan troglodytes
MEASURED ENDPOINT: Kd

Enter Kd (test system HLA-C*03:03) for `VMPPRTLLL`
≥ 20 µM

====

- EXPERIMENTAL SYSTEM: HLA-A*69:01
- METHOD: IEDB peptide-MHC binding, purified MHC/direct/fluorescence; filed as Kd, often an IC50 or EC50 that approximates it; bounds were set here for any values at or beyond the usual limits of such assays
- SETUP CONDITIONS: source organism: Influenza A virus (A/SW/MN/12883/00(H1N2))
MEASURED ENDPOINT: Kd (nM)
Give the quantity in nM, number only.

Please supply the value of reported Kd for the item `FPNEVGARI`
3.8

====

- EXPERIMENTAL SYSTEM: HLA-B*08:02
- METHOD: IEDB peptide-MHC binding, purified MHC/direct/fluorescence; filed as Kd, often an IC50 or EC50 that approximates it; bounds were set here for any values at or beyond the usual limits of such assays
- SETUP CONDITIONS: source organism: Salmonella enterica subsp. enterica serovar Typhimurium str. LT2
pKd: −log10 of the molar value.
MEASURED ENDPOINT: pKd

Please supply the value of reported pKd for the item `YSDIFNNVL`
≤ 4.70

====

- EXPERIMENTAL SYSTEM: HLA-A*29:02
- METHOD: IEDB peptide-MHC binding, purified MHC/direct/fluorescence; filed as Kd, often an IC50 or EC50 that approximates it; bounds were set here for any values at or beyond the usual limits of such assays
- SETUP CONDITIONS: source organism: Cryptosporidium parvum Iowa II
pKd: −log10 of the molar value.
MEASURED ENDPOINT: pKd

Please supply the value of reported pKd for the item `TVFRNQNRV`
≤ 4.70

====

- EXPERIMENTAL SYSTEM: HLA-B*18:01
- METHOD: IEDB peptide-MHC binding, purified MHC/direct/fluorescence; filed as Kd, often an IC50 or EC50 that approximates it; bounds were set here for any values at or beyond the usual limits of such assays
- SETUP CONDITIONS: source organism: Francisella tularensis subsp. holarctica LVS
pKd: −log10 of the molar value.
MEASURED ENDPOINT: pKd

Enter pKd (test system HLA-B*18:01) for `VEIGLGMPF`
≥ 9.00

====

- EXPERIMENTAL SYSTEM: HLA-A*26:03
- METHOD: IEDB peptide-MHC binding, purified MHC/direct/fluorescence; filed as Kd, often an IC50 or EC50 that approximates it; bounds were set here for any values at or beyond the usual limits of such assays
- SETUP CONDITIONS: source organism: Vibrio vulnificus YJ016
MEASURED ENDPOINT: Kd

Please supply the value of reported Kd for the item `WHQARFEEL`
≥ 20 µM

====

- EXPERIMENTAL SYSTEM: HLA-B*18:01
- METHOD: IEDB peptide-MHC binding, purified MHC/direct/fluorescence; filed as Kd, often an IC50 or EC50 that approximates it; bounds were set here for any values at or beyond the usual limits of such assays
- SETUP CONDITIONS: source organism: Influenza A virus (A/SW/MN/12883/00(H1N2))
pKd: −log10 of the molar value.
MEASURED ENDPOINT: pKd

Please supply the value of reported pKd for the item `FPNEVGARI`
≤ 4.70

====

- EXPERIMENTAL SYSTEM: HLA-B*15:01
- METHOD: IEDB peptide-MHC binding, purified MHC/competitive/fluorescence; bounds were set here for any values at or beyond the usual limits of such assays
- SETUP CONDITIONS: source organism: Zaire ebolavirus
MEASURED ENDPOINT: pIC50
// returns pIC50 (minus log10 of molar concentration), number only

Consider the reported pIC50 for these sequences:
SLTESDMDY ... 4.17
FLESGAVKY ... 4.71

Please supply the value of reported pIC50 for the item `TIHHASAPL`
4.84

====

- EXPERIMENTAL SYSTEM: HLA-B*15:09
- METHOD: IEDB peptide-MHC binding, purified MHC/competitive/fluorescence; filed as Kd, often an IC50 or EC50 that approximates it; bounds were set here for any values at or beyond the usual limits of such assays
- SETUP CONDITIONS: source organism: Escherichia coli 536
MEASURED ENDPOINT: Kd

Please supply the value of reported Kd for the item `VMAASGAPF`
≥ 20 µM

====

- EXPERIMENTAL SYSTEM: HLA-A*29:02
- METHOD: IEDB peptide-MHC binding, purified MHC/direct/fluorescence; filed as Kd, often an IC50 or EC50 that approximates it; bounds were set here for any values at or beyond the usual limits of such assays
- SETUP CONDITIONS: source organism: Salmonella enterica subsp. enterica serovar Berta
pKd: −log10 of the molar value.
MEASURED ENDPOINT: pKd

Please supply the value of reported pKd for the item `HQDDGQPRL`
≤ 4.70

====

- EXPERIMENTAL SYSTEM: HLA-A*33:01
- METHOD: IEDB peptide-MHC binding, purified MHC/competitive/radioactivity; filed as Kd, often an IC50 or EC50 that approximates it; bounds were set here for any values at or beyond the usual limits of such assays
- SETUP CONDITIONS: source organism: Dengue virus 2 Peru/IQT2913/1996
MEASURED ENDPOINT: Kd (nM)
Give the quantity in nM, number only.

Please supply the value of reported Kd for the item `RMLINRFTMR`
162

====

- EXPERIMENTAL SYSTEM: HLA-B*15:01
- METHOD: IEDB peptide-MHC binding, purified MHC/competitive/fluorescence; filed as Kd, often an IC50 or EC50 that approximates it; bounds were set here for any values at or beyond the usual limits of such assays
- SETUP CONDITIONS: source organism: Human immunodeficiency virus 1
MEASURED ENDPOINT: Kd (nM)
Give the quantity in nM, number only.

Please supply the value of reported Kd for the item `RSLYNTVAVLY`
1320

====

- EXPERIMENTAL SYSTEM: HLA-A*24:03
- METHOD: IEDB peptide-MHC binding, purified MHC/direct/fluorescence; filed as Kd, often an IC50 or EC50 that approximates it; bounds were set here for any values at or beyond the usual limits of such assays
- SETUP CONDITIONS: source organism: Vibrio parahaemolyticus AQ3810
pKd: −log10 of the molar value.
MEASURED ENDPOINT: pKd

Please supply the value of reported pKd for the item `EPFLVQFWI`
≤ 4.70

====

- EXPERIMENTAL SYSTEM: HLA-A*30:02
- METHOD: IEDB peptide-MHC binding, purified MHC/competitive/radioactivity; filed as Kd, often an IC50 or EC50 that approximates it; bounds were set here for any values at or beyond the usual limits of such assays
- SETUP CONDITIONS: source organism: Lassa virus GA391
MEASURED ENDPOINT: pKd
// returns pKd (minus log10 of molar concentration), number only

Please supply the value of reported pKd for the item `YCNYSRYWY`
6.09

====

- EXPERIMENTAL SYSTEM: HLA-B*08:01
- METHOD: IEDB peptide-MHC binding, purified MHC/direct/fluorescence; filed as Kd, often an IC50 or EC50 that approximates it; bounds were set here for any values at or beyond the usual limits of such assays
- SETUP CONDITIONS: source organism: Vibrio parahaemolyticus
pKd: −log10 of the molar value.
MEASURED ENDPOINT: pKd

GRNSRFPDK ... ≤ 4.70

Now for a further sequence.
Please supply the value of reported pKd for the item `EEDLPVTWR`
≤ 4.70

====

# reported Kd; entries follow
- EXPERIMENTAL SYSTEM: HLA-A*68:01
- METHOD: IEDB peptide-MHC binding, purified MHC/competitive/radioactivity; filed as Kd, often an IC50 or EC50 that approximates it; bounds were set here for any values at or beyond the usual limits of such assays
- SETUP CONDITIONS: source organism: Dengue virus 1 Brazil/97-11/1997
Give the quantity in nM, number only.

Consider the reported Kd for these sequences:
EVHTWTEQYK ... 15.2
MFAVGLLFR ... 61.9
TVMDVISRR ... 7.98

Now for a further sequence.
Please supply the value of reported Kd for the item `MGANFRADR`
17
